Tested on: 874868-142-R-J2-PDC complex spheroids, growth % test/control;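 further: spheroids exposed to the compounds for 7 days; 100% = DMSO vehicle control viability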
ASSAY METHOD TEXT: Anticancer human tumor 874868-142-R-J2-PDC patient-derived head and neck squamous carcinoma cell line growth inhibition [CLK]
TEST SETTINGS: second compound 3.16 µM; first compound 0.0316 µM; active compounds read low
Decision: viability, T/C beneath 40% gives 1; viability, T/C meeting or exceeding 40% gives 0.

COMPOUND	TEST SYSTEM	ASSIGNED LABEL
Nc1ccccc1NC(=O)c1ccc(CNC(=O)OCc2cccnc2)cc1 + CNC(=O)c1ccc(Nc2nc(OC3CCCC3)c3c(-c4ccc5nc(C)oc5c4)c[nH]c3n2)c(OC)c1	874868-142-R-J2-PDC complex spheroids, growth % test/control	0
C=C(F)C(=O)N1CCN(c2nc(OCC3CCCN3C)nc3c2CCN(c2cccc4cccc(Cl)c24)C3)CC1CC#N (stereo not given) + CNC(=O)c1ccc(Nc2nc(OC3CCCC3)c3c(-c4ccc5nc(C)oc5c4)c[nH]c3n2)c(OC)c1	874868-142-R-J2-PDC complex spheroids, growth % test/control	1
CC(=O)O[C@H]1C(=O)[C@@]2(C)[C@H]([C@H](OC(=O)c3ccccc3)[C@]3(O)C[C@H](OC(=O)[C@H](O)[C@@H](NC(=O)c4ccccc4)c4ccccc4)C(C)=C1C3(C)C)[C@]1(OC(C)=O)CO[C@@H]1C[C@@H]2O + CN1CCN(c2cc(C(=O)Nc3cc4cc(-c5cnn(C)c5)ccc4cn3)ccn2)CC1	874868-142-R-J2-PDC complex spheroids, growth % test/control	1
Nc1ccccc1NC(=O)c1ccc(CNC(=O)OCc2cccnc2)cc1 + CN1CCN(c2cc(C(=O)Nc3cc4cc(-c5cnn(C)c5)ccc4cn3)ccn2)CC1	874868-142-R-J2-PDC complex spheroids, growth % test/control	1
CC1COCCN1c1cc(C2(S(C)(=N)=O)CC2)nc(-c2ccnc3[nH]ccc23)n1 (stereo not given) + CNC(=O)c1ccc(Nc2nc(OC3CCCC3)c3c(-c4ccc5nc(C)oc5c4)c[nH]c3n2)c(OC)c1	874868-142-R-J2-PDC complex spheroids, growth % test/control	0
COc1ccc([C@@H](O)c2cc(-c3ncnc4cc(N5CCOCC5)ccc34)c(F)cc2Cl)nn1 + CNC(=O)c1ccc(Nc2nc(OC3CCCC3)c3c(-c4ccc5nc(C)oc5c4)c[nH]c3n2)c(OC)c1	874868-142-R-J2-PDC complex spheroids, growth % test/control	1
CCc1c2c(nc3ccc(O)cc13)-c1cc3c(c(=O)n1C2)COC(=O)[C@]3(O)CC + CNC(=O)c1ccc(Nc2nc(OC3CCCC3)c3c(-c4ccc5nc(C)oc5c4)c[nH]c3n2)c(OC)c1	874868-142-R-J2-PDC complex spheroids, growth % test/control	1
COc1cccc2c1C(=O)c1c(O)c3c(c(O)c1C2=O)CC(O)(C(=O)CO)CC3OC1CC(N)C(O)C(C)O1 (stereo not given) + CN1CCN(c2cc(C(=O)Nc3cc4cc(-c5cnn(C)c5)ccc4cn3)ccn2)CC1	874868-142-R-J2-PDC complex spheroids, growth % test/control	1
CC1(C)CCC(CN2CCN(c3ccc(C(=O)NS(=O)(=O)c4ccc(NCC5CCOCC5)c([N+](=O)[O-])c4)c(Oc4cnc5[nH]ccc5c4)c3)CC2)=C(c2ccc(Cl)cc2)C1 + CNC(=O)c1ccc(Nc2nc(OC3CCCC3)c3c(-c4ccc5nc(C)oc5c4)c[nH]c3n2)c(OC)c1	874868-142-R-J2-PDC complex spheroids, growth % test/control	0
O=C(c1cc(Cc2n[nH]c(=O)c3ccccc23)ccc1F)N1CCN(C(=O)C2CC2)CC1 + CNC(=O)c1ccc(Nc2nc(OC3CCCC3)c3c(-c4ccc5nc(C)oc5c4)c[nH]c3n2)c(OC)c1	874868-142-R-J2-PDC complex spheroids, growth % test/control	0

Every entry's value here was drawn from PubChem BioAssay AID2060601.
